- system_tested: human MCH-1 receptor (Homo sapiens (Human), UniProt Q99705)
- Sequence (Q99705 whole entry): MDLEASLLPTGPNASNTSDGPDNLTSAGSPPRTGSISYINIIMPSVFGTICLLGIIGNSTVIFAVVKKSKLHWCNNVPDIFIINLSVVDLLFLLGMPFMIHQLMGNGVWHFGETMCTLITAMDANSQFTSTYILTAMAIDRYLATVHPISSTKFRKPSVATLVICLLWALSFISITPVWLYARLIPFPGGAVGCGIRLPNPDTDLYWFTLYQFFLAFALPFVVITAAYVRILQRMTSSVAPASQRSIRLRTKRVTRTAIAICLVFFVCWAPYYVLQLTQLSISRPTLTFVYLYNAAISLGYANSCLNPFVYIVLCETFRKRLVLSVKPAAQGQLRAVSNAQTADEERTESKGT
- experiment: Binding Assay for Human Melanin-Concentrating Hormone (MCH-1) Receptor (radioligand displacement, CHO-K1 membranes)
- measurement_setup: MCH-1 Ki (nM), membranes from CHO-K1 cells expressing human MCH1 receptor; [3H]-labeled radioligand; Ki from IC50 by Cheng Prusoff
metric: Ki (nM)
// units = nM; emit number, no label

Cn1c2c(c3ccc(-n4ccc(OCc5ccc(F)cn5)cc4=O)cc31)C1CCC(C2)N1 (single isomer, unassigned; enantiomer a) [Example 25] = 19

Measured Ki for this entry Cl.O=c1cc(OCc2ccccc2)ccn1-c1ccc2c3c([nH]c2c1)CC1CCC3N1 (single isomer, unassigned; enantiomer a) [Example 21] on human MCH-1 receptor (Homo sapiens (Human), UniProt Q99705): 39

Record Cn1c2c(c3ccc(-n4ccc(OCc5ccc(C(F)(F)F)nc5)cc4=O)cc31)C1CCC(C2)N1 (single isomer, unassigned; enantiomer b) [Example 38] / human MCH-1 receptor (Homo sapiens (Human), UniProt Q99705), Ki recorded as 12

Reference source: patent US8629158B2
